Tested on: HOP-62 complex spheroids with HUVEC/MSC, viability
Test: Anticancer human tumor HOP-62 cell line growth inhibition [RAS];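 note: spheroids exposed to agents for seven days before readout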
Details: second compound 0.003 µM; first compound 1 µM; active compounds read low
Checkbox rule: viability, T/C lower than 60% = yes; viability, T/C not lower than 60% = no.

Request: In the record for CC(=O)OC12COC1CC(O)C1(C)C(=O)C(O)C3=C(C)C(OC(=O)C(O)C(NC(=O)OC(C)(C)C)c4ccccc4)CC(O)(C(OC(=O)c4ccccc4)C21)C3(C)C (stereo not given) + CCn1c(-c2cccnc2C(C)OC)c2c3cc(ccc31)N1CCOC(CC(NC(=O)C(C(C)C)N(C)C(=O)C3(F)CCN(C(=O)C#CC(C)(C)N(C)C)CC3)C(=O)N3CCCC(N3)C(=O)OCC(C)(C)C2)C1 , is viability, T/C less than 60%?
Response: yes

Request: In the record for CC(Nc1ccc2c(c1)OCCn1cc(N3C(=O)OCC3C(F)F)nc1-2)C(N)=O (stereo not given) + CCn1c(-c2cc(N3CCN(C)CC3)cnc2C(C)OC)c2c3cc(ccc31)-c1csc(n1)CC(NC(=O)C1CC1C)C(=O)N1CCCC(N1)C(=O)OCC(C)(C)C2 , is viability, T/C less than 60%?
Response: yes

Request: In the record for CCC(CC)c1cc(NC2CCC(N)C2)n2nccc2n1 (stereo not given) + CCn1c(-c2cc(N3CCN(C)CC3)cnc2C(C)OC)c2c3cc(ccc31)-c1csc(n1)CC(NC(=O)C1CC1C)C(=O)N1CCCC(N1)C(=O)OCC(C)(C)C2 , is viability, T/C less than 60%?
Response: no

Request: In the record for C=CC(=O)Nc1cc(Nc2nccc(-c3cn(C)c4ccccc34)n2)c(OC)cc1N(C)CCN(C)C + CCn1c(-c2cccnc2C(C)OC)c2c3cc(ccc31)N1CCOC(CC(NC(=O)C(C(C)C)N(C)C(=O)C3(F)CCN(C(=O)C#CC(C)(C)N(C)C)CC3)C(=O)N3CCCC(N3)C(=O)OCC(C)(C)C2)C1 , is viability, T/C less than 60%?
Response: no

Request: In the record for O=C(c1ccc(F)c(F)c1Nc1ccc(I)cc1F)N1CC(O)([C@@H]2CCCCN2)C1 + CCn1c(-c2cc(N3CCN(C)CC3)cnc2C(C)OC)c2c3cc(ccc31)-c1csc(n1)CC(NC(=O)C1CC1C)C(=O)N1CCCC(N1)C(=O)OCC(C)(C)C2 , is viability, T/C less than 60%?
Response: yes

Request: In the record for CC(=O)OC12COC1CC(O)C1(C)C(=O)C(O)C3=C(C)C(OC(=O)C(O)C(NC(=O)OC(C)(C)C)c4ccccc4)CC(O)(C(OC(=O)c4ccccc4)C21)C3(C)C (stereo not given) + CCn1c(-c2cc(N3CCN(C)CC3)cnc2C(C)OC)c2c3cc(ccc31)-c1csc(n1)CC(NC(=O)C1CC1C)C(=O)N1CCCC(N1)C(=O)OCC(C)(C)C2 , is viability, T/C less than 60%?
Response: yes

Request: In the record for CCN1CCN(Cc2ccc(Nc3ncc(F)c(-c4cc(F)c5nc(C)n(C(C)C)c5c4)n3)nc2)CC1 + CCn1c(-c2cc(N3CCN(C)CC3)cnc2C(C)OC)c2c3cc(ccc31)-c1csc(n1)CC(NC(=O)C1CC1C)C(=O)N1CCCC(N1)C(=O)OCC(C)(C)C2 , is viability, T/C less than 60%?
Response: no

Request: In the record for C=CC(=O)Nc1cc(Nc2nccc(-c3cn(C)c4ccccc34)n2)c(OC)cc1N(C)CCN(C)C + CCn1c(-c2cc(N3CCN(C)CC3)cnc2C(C)OC)c2c3cc(ccc31)-c1csc(n1)CC(NC(=O)C1CC1C)C(=O)N1CCCC(N1)C(=O)OCC(C)(C)C2 , is viability, T/C less than 60%?
Response: yes

Request: In the record for Nc1ccn(C2OC(CO)C(O)C2(F)F)c(=O)n1 (stereo not given) + CCn1c(-c2cc(N3CCN(C)CC3)cnc2C(C)OC)c2c3cc(ccc31)-c1csc(n1)CC(NC(=O)C1CC1C)C(=O)N1CCCC(N1)C(=O)OCC(C)(C)C2 , is viability, T/C less than 60%?
Response: yes
